species: Rattus norvegicus; assay: Stimulation [3H]flunitrazepam binding to benzodiazepine binding site of GABA-A receptor in Sprague-Dawley rat cerebellum at 800 nM by liquid scintillation spectrophotometry; type: tissue-based
Provide the recorded Activity for the entries that follow.
Give bare numbers, in %.

Before answering, review these 3 worked examples.
Enquiry: Look up Activity: CC(=O)[C@H]1CC[C@H]2[C@@H]3CC[C@H]4C[C@H](O)[C@@H]5C[C@]4(COS(=O)(=O)N5Cc4ccccc4)[C@H]3CC[C@]12C
Return: 134

Enquiry: Look up Activity: CC(=O)[C@H]1CC[C@H]2[C@@H]3CC[C@H]4C[C@H](O)CC[C@]4(C)[C@H]3CC[C@]12C
Return: 140

Enquiry: Look up Activity: CC(=O)[C@H]1CC[C@H]2[C@@H]3CC[C@H]4C[C@H](O)[C@@H]5C[C@]4(COS(=O)(=O)N5)[C@H]3CC[C@]12C
Return: 170

More entries:
Enquiry: Look up Activity: CC(=O)[C@H]1CC[C@H]2[C@@H]3CC[C@H]4C[C@H](F)[C@@H]5C[C@]4(COS(=O)(=O)N5)[C@H]3CC[C@]12C
Return: 98
